# ASSAYED_SYSTEM: T1, Ala mutant SEQ ID NO: 38 (human)
# T1 sequence (peptide): EENMDDQWMQDAMEIGY
# TEST_DETAILS: ELISA, peptide on plate (10 ug/mL)
QUANTITY_MEASURED: absorbance 490 nm/630 nm (OD)

[[record]]
binder = "E9 (antibody, IgG1, V domains shown) VH: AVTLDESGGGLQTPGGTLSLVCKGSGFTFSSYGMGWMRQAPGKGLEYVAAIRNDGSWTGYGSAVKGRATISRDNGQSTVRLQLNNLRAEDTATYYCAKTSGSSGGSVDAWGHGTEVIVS VL: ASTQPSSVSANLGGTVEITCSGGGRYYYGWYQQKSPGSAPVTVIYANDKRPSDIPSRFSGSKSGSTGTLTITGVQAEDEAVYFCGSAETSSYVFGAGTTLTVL"
reported_result = 1.91

[[record]]
binder = "G6 (antibody, IgG1, V domains shown) VH: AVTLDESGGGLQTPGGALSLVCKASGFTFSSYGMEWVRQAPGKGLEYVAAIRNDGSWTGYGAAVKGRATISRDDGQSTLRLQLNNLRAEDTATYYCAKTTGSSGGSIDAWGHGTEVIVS VL: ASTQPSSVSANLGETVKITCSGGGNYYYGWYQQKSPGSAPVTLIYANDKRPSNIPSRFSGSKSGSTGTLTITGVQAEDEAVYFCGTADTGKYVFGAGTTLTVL"
reported_result = 1.92

[[record]]
binder = "A11 (antibody, IgG1, V domains shown) VH: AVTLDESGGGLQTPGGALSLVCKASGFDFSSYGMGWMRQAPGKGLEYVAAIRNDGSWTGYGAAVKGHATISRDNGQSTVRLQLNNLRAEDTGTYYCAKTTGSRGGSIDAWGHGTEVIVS VL: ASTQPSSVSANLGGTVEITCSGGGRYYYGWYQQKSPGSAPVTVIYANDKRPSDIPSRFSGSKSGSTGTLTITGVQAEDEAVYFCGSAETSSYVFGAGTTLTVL"
reported_result = 1.89

